# key: entry, value: koff
Biological target: T1, human C1s (human, UniProt P09871 16-688)
T1 construct: Analyte in the Biacore assays; also called hC1s; serum-derived human C1s (CompTech)
T1 sequence: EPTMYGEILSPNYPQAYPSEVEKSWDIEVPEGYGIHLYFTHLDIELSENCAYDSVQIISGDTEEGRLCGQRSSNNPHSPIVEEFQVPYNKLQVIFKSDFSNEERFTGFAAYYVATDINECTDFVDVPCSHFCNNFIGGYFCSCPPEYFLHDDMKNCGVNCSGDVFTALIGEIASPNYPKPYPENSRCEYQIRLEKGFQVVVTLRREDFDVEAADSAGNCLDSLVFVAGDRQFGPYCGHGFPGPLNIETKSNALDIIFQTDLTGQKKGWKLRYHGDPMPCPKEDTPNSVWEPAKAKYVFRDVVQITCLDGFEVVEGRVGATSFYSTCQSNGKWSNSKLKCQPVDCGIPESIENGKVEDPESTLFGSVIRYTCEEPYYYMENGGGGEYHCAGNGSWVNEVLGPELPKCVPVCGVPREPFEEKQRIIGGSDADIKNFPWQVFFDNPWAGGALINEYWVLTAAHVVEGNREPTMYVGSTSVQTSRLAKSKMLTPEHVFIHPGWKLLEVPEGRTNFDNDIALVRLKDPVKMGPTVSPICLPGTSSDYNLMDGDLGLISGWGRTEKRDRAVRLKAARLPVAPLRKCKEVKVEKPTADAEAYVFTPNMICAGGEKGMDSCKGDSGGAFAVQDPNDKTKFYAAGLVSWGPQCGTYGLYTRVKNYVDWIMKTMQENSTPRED
Test: SPR (Biacore T200, 37C), Ab captured on protein A/G; pH 5.8, 1.2 mM Ca
Report the figure in s⁻¹ without appending any unit label.

Sample records with koff:
>>> result_value("C1_IPN92H0279-SG4GK/IPN93L0091-SK1 (antibody, human IgG4 S228P, kappa, name in Kabat numbering, V domains shown, Substitutions from IPN009VH2 / IPN009VK3, Kabat numbering; also called IPN92H0279/IPN93L0091) VH: EVMLVESGGGLVKPGGSLRLSCAASGFTFSNYAMSWVRQAPGKGLEWVATISSGGSHTYELDSVKERFTISRDNSKDTLYLQMNSLRAEDTALYYCARLFTKHAMDYWGQGTLVTVSS VL: QIVLTQSPATLSLSPGERATLSCTASSSVSSSRLHWYQQKPGKAPKLWIYSTSNLASGVPSRFSGSGSGTDYTLTISSLQPEDFATYYCHQYYRLHPITFGQGTKLEIKR")
0.00684
>>> result_value("C1_IPN92H0145-SG4GK/IPN93L0024-SK1 (antibody, human IgG4 S228P, kappa, name in Kabat numbering, V domains shown, Substitutions from IPN009VH2, Kabat numbering; also called IPN92H0145/IPN93L0024) VH: EVMLVESGGGLVKPGGSLRLSCAASGFTFSNYAMSWVRQAPGKGLEWVATISSGGSRTYYLDSVKGRFTISRDNSKDTLYLQMNSLRAEDTALYYCARLFTGHAMDYWGQGTLVTVSS VL: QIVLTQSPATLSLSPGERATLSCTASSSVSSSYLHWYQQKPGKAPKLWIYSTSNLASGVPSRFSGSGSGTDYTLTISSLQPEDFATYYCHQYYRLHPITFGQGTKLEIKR")
0.0496
>>> result_value("C1_IPN92H0194-SG4GK/IPN93L0024-SK1 (antibody, human IgG4 S228P, kappa, name in Kabat numbering, V domains shown, Substitutions from IPN009VH2, Kabat numbering; also called IPN92H0194/IPN93L0024) VH: EVMLVESGGGLVKPGGSLRLSCAASGFTFSNYAMSWVRQAPGKGLEWVATISSGGSHTYYLDSVKERFTISRDNSKDTLYLQMNSLRAEDTALYYCARLFTGHAMDYWGQGTLVTVSS VL: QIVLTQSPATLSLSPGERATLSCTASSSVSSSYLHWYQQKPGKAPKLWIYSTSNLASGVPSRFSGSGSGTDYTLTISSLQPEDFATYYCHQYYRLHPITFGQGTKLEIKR")
0.00429
>>> result_value("C1_IPN92H0157-SG4GK/IPN93L0024-SK1 (antibody, human IgG4 S228P, kappa, name in Kabat numbering, V domains shown, Substitutions from IPN009VH2, Kabat numbering; also called IPN92H0157/IPN93L0024) VH: EVMLVESGGGLVKPGGSLRLSCAASGFTFSNYAMSWVRQAPGKGLEWVATISSGGSHTRYLDSVKGRFTISRDNSKDTLYLQMNSLRAEDTALYYCARLFTGHAMDYWGQGTLVTVSS VL: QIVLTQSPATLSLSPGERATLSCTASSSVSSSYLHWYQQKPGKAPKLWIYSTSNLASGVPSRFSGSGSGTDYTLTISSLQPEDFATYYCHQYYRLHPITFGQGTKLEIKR")
0.012

Please look at the following binder next.
Query block: Suppose we examine the binder C1_IPN92H0061-SG4GK/IPN93L0024-SK1 (antibody, human IgG4 S228P, kappa, name in Kabat numbering, V domains shown, Substitutions from IPN009VH2, Kabat numbering; also called IPN92H0061/IPN93L0024) VH: EVMLVESGGGLVKPGGSLRLSCAASGFTKSNYAMSWVRQAPGKGLEWVATISSGGSHTYYLDSVKGRFTISRDNSKDTLYLQMNSLRAEDTALYYCARLFTGHAMDYWGQGTLVTVSS VL: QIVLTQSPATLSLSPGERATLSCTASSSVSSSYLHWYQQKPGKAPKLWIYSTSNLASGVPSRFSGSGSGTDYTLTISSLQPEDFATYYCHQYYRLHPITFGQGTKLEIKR ; what koff value has been reported?
Result block: 0.022

Data origin: patent US20210032365A1
